Tested on: SK-MEL-28 melanoma
assay.info: NCI-60 one-dose screen, 48 h (100 = growth as untreated, 0 = no growth, -100 = all killed)
measurement.setup: 10 µM unless noted
The panel holds about 83,000 compounds, 20% with a hit somewhere; the sample as a whole holds those more often.
Hi there, I'd appreciate the recorded growth for every entry that follows.
Answers are plain numbers, in %.

{"compound": "CN(C)C(=O)C1=NC(CO)C(=O)N(c2ccc(Cl)cc2)N1 (stereo not given)", "experimental.target": "SK-MEL-28 melanoma", "endpoint.unit": "%", "growth": 107}
{"compound": "COc1ccc(C(=O)n2cc(C=O)c3ccccc32)cc1", "experimental.target": "SK-MEL-28 melanoma", "endpoint.unit": "%", "growth": 102}
{"compound": "O=C1[C@H]2Cc3c([nH]c4ccccc34)[C@@H](c3ccc(Cl)cc3)N2C(=O)CN1C1CCN(Cc2c(Cl)cccc2Cl)CC1", "experimental.target": "SK-MEL-28 melanoma", "endpoint.unit": "%", "growth": 103}
{"compound": "CN1CCN(c2nc(-c3csc(-c4ccncc4)n3)cc3ccccc23)CC1", "experimental.target": "SK-MEL-28 melanoma", "endpoint.unit": "%", "growth": 28.8}
{"compound": "O=C(NNc1nc2cc(F)cc(F)c2n2cccc12)c1ccncn1", "experimental.target": "SK-MEL-28 melanoma", "endpoint.unit": "%", "growth": 22.9}
{"compound": "COc1ccc(NC2=C(Cl)C(=O)C(C)=C(C)C2=O)cc1", "experimental.target": "SK-MEL-28 melanoma", "endpoint.unit": "%", "growth": 103}

Please give growth for each item listed below.
1. CCCC(=O)NC(c1cccnc1)c1ccc2c(C)ccnc2c1O (stereo not given)
2. CS(=O)c1nccc(-c2c(-c3ccc(F)c(OCc4ccc(F)cc4)c3)nc3sccn23)n1 (stereo not given)
3. CCNC(=NCCCN(C)C)N/C(N)=N/c1nc2ccccc2s1
4. COC(=O)c1nc(-c2ccc(C)cc2)oc1S(=O)(=O)N1CCN(c2oc(-c3ccccc3)nc2C#N)CC1

1: 30.4; 2: 41.1; 3: 93.1; 4: 99.6

###

Test system: HS 578T breast
assay.info: NCI-60 one-dose screen, 48 h
measurement.setup: 10 µM unless noted
This is part of a sample that, as a whole, favours compounds with a hit. Of some 83,000 tested, about 20% had one in any assay. Activity calls are given as the source filed them. Rule for the calls: active = growth percent below 10; inactive = the rest.
# output must be one of active, inactive

{"item.smiles": "C/C=C/[C@@H]1C=C[C@@H]2C[C@H](C)CC[C@H]2[C@]1(C)/C(O)=C1/C(=O)[C@H](CO)N(C)C1=O", "experimental.target": "HS 578T breast", "category": "inactive"}
{"item.smiles": "CNC(=O)c1cc(Oc2ccc3nc(NC(=O)c4cc(C)cc(C)c4)sc3c2)ccn1", "experimental.target": "HS 578T breast", "category": "inactive"}
{"item.smiles": "NS(=O)(=O)c1ccc(Nc2nc(N/N=C/c3ccc([N+](=O)[O-])cc3)nc(Nc3ccccc3)n2)cc1", "experimental.target": "HS 578T breast", "category": "inactive"}
{"item.smiles": "CC(C)N=C(N/C(N)=N/c1nc2ccccc2s1)NC(C)C", "experimental.target": "HS 578T breast", "category": "inactive"}
{"item.smiles": "Oc1ccc(CSc2nnc(-c3ccc(Oc4ccccc4)cc3)o2)c2cccnc12", "experimental.target": "HS 578T breast", "category": "inactive"}
{"item.smiles": "O=C(Nc1cccc(Cl)c1)Nc1nc2ccc(-c3cccc4ccccc34)cc2s1", "experimental.target": "HS 578T breast", "category": "inactive"}

Identify the outcome logged in this assay for the compound shown: CCN1CCN(Cc2ccc(C(=O)Nc3nc4ccc(Oc5ccnc(C(=O)NC)c5)cc4s3)cc2C(F)(F)F)CC1
inactive

Identify the outcome logged in this assay for the compound shown: COc1ccc(-c2nc3cc(Cl)c(Cl)cc3n2CC(=O)N=Nc2c(O)[nH]c3ccc(Cl)cc23)cc1
active

Identify the outcome logged in this assay for the compound shown: COc1ccc(CCN2C(=O)CSC2=S)cc1OC
inactive
